Tested on: Rhipicephalus sanguineus
assay comment: Rhipicephalus sanguineus in-vitro contact test, adult brown dog ticks (RHIPSA Cont)
Assay type: in vivo
stated conditions: 48 h, application rate 5 μg/cm^2 (=500 g/ha), after 48 hours, read-out: activity (efficacy: 100% means all ticks are dead or moribund)
measurement kind: pest or weed control at 5 µg/cm2, 500 g/ha (%)

- molecule: "C[C@H](NC(=O)c1cc(Cl)cc(C(F)(F)F)c1)c1nc(C(C)(C)C)nn1-c1ccc(C#N)cn1 [I-38]"
  readout number: 80
- molecule: "C[C@H](NC(=O)c1cc(C(F)(F)F)cc(C(F)(F)F)c1)c1nc(C(C)(C)C)nn1-c1ccc(C#N)cn1 [I-37]"
  readout number: 100
- molecule: "C[C@H](NC(=O)c1cc(Br)cc(Br)c1)c1ncnn1-c1ccc(C#N)cn1 [II-13]"
  readout number: 80
- molecule: "Cc1nc([C@H](C)NC(=O)c2cc(Cl)cc(C#N)c2)n(-c2ccc(C#N)cn2)n1 [II-61]"
  readout number: 100
- molecule: "C[C@H](NC(=O)c1cc(Br)cc(C(F)F)c1)c1ncnn1-c1ccc(C#N)cn1 [II-83]"
  readout number: 100
- molecule: "Cc1nc([C@H](C)NC(=O)c2cc(Br)cc(Br)c2)n(-c2ccc(C#N)cn2)n1 [II-52]"
  readout number: 100
- molecule: "C[C@H](NC(=O)c1ccnc(C(F)(F)F)n1)c1ncnn1-c1ccc(C#N)cn1 [II-8]"
  readout number: 100
- molecule: "CCN(C)C(=O)c1ccc(-n2nc(C)nc2[C@H](C)NC(=O)c2cc(C(F)(F)F)cc(C(F)(F)F)c2)nc1 [II-97]"
  readout number: 100
- molecule: "CC(C)c1nc([C@H](C)NC(=O)c2cncc(Br)c2)n(-c2ccc(C#N)cn2)n1 [I-27]"
  readout number: 100
- molecule: "C[C@H](NC(=O)c1cc(C(F)(F)F)cc(C(F)(F)F)c1)c1ncnn1-c1ccc(C(=O)NC2CC2)cn1 [II-37]"
  readout number: 80
- molecule: "C[C@H](NC(=O)c1cc(Cl)nc(C(F)(F)F)c1)c1ncnn1-c1ccc(C#N)cn1 [II-5]"
  readout number: 100
- molecule: "CC(C)c1nc([C@H](C)NC(=O)c2cc(Cl)cc(Br)c2)n(-c2ccc(C#N)cn2)n1 [I-19]"
  readout number: 100
- molecule: "COc1nc([C@H](C)NC(=O)c2cc(Cl)cc(Cl)c2)n(-c2ccc(C#N)cn2)n1 [I-15]"
  readout number: 80
- molecule: "CC(C)N(C)C(=O)c1ccc(-n2ncnc2[C@H](C)NC(=O)c2cc(Cl)cc(C(F)(F)F)c2)nc1 [II-26]"
  readout number: 80
- molecule: "C[C@H](NC(=O)c1cc(Cl)cc(C#N)c1)c1ncnn1-c1ccc(C#N)cn1 [II-57]"
  readout number: 100
- molecule: "Cc1nc([C@H](C)NC(=O)c2cc(F)cc(C#N)c2)n(-c2ccc(C#N)cn2)n1 [II-105]"
  readout number: 100
- molecule: "Cc1nc([C@H](C)NC(=O)c2cc(C#N)cc(C(F)(F)F)c2)n(-c2ccc(C#N)cn2)n1 [II-53]"
  readout number: 100
